- target_under_test: biotinylated wild-type menin and MLL-AF9 fusion protein (menin/MLL binding) (Homo sapiens, UniProt O00255)
- Construct: MLL-AF9-FLAG: HEK293 cells, used as cleared lysate
- Sequence (O00255 whole entry, the tested form may be a part): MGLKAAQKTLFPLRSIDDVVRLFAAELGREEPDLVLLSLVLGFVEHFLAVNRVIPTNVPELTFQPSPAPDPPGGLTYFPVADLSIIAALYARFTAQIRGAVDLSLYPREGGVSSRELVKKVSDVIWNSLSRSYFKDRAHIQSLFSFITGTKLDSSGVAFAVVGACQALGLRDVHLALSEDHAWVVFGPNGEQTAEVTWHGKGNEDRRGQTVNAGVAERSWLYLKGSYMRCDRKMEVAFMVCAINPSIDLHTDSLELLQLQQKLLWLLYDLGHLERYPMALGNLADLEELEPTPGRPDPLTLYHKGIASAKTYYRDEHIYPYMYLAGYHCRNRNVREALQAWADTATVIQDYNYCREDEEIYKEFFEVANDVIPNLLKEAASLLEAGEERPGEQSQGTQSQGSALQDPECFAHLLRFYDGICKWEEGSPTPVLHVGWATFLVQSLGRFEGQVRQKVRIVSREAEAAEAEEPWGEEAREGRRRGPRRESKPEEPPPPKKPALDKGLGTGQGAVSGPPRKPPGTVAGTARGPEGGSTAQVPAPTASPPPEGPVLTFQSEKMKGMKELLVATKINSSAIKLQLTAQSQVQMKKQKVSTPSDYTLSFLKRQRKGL
- measurement_protocol: Assay 1: menin/MLL binding AlphaLISA assay, wild-type menin
- conditions_used: Table 30; column head does not say wild-type or mutated menin
- Procedure: Potencies of inhibitor compounds against menin/MLL binding were assessed by AlphaLISA assay using biotinylated (1) wild-type menin or (2) mutated menin (described in Huang et al, 2012, Nature, 482, 542-546) and MLL-AF9 fusion protein bearing a FLAG epitope at its C-terminus. Menin proteins were expressed in E. coli and covalently modified with biotin using EZ-Link™ Sulfo-NHS-Biotin (ThermoFisher Cat.No. 21217) according to manufacturer's protocol. […]
readout_kind: IC50

Entry CCN(C(=O)C(C)C)c1cc(F)ccc1Oc1cncnc1N1CC2(CCN(C[C@H]3CC[C@H](NC(=O)OC)CC3)CC2)C1 has what IC50?
< 100 nM

Entry CC(C)Cc1cc(F)ccc1Oc1cncnc1N1CCC2(CCN(Cc3ccc4[nH]c(=O)[nH]c4c3)C2)C1 (centres unmarked) has what IC50?
< 100 nM

Entry CC(C)N(C(=O)c1cc(F)ccc1Oc1cncnc1N1CC2(CCN(CC(C)(C)C)C2)C1)C(C)C has what IC50?
< 100 nM

Entry CC(C)c1ncncc1-c1cc(F)ccc1Oc1cncnc1N1CCC2(CCC(Cc3ccccc3)C2)C1 (centres unmarked) has what IC50?
≥ 1000 nM

Entry CC(C)N(C(=O)c1cc(F)ccc1Nc1cncnc1N1CCC2(CC1)CN(C1CCC(NS(C)(=O)=O)CC1)C2)C(C)C (single isomer, unassigned) [Example 248B] has what IC50?
< 100 nM

Entry CNC(=O)C1CC1c1cc(F)ccc1Oc1cncnc1N1CCC2(CCN(Cc3ccc4[nH]c(=O)[nH]c4c3)C2)C1 (centres unmarked) has what IC50?
< 100 nM

Entry CCN(C(=O)C(C)C)c1cc(F)ccc1Oc1cncnc1N1CC2(CCN(C[C@H]3CC[C@H](NS(C)(=O)=O)CC3)CC2)C1 has what IC50?
< 100 nM

Entry CC(C)N(C(=O)c1cc(F)ccc1Oc1cncnc1N1CC2(CCN(C[C@H]3CC[C@@H](NS(C)(=O)=O)CC3)CC2)C1)C(C)C has what IC50?
< 100 nM

Entry CC1(C)C(=O)Nc2cc(CN3CCC4(C3)CN(c3ncncc3Oc3ccc(F)cc3Cl)C4)ccc21 has what IC50?
100 to 1000 nM

Entry CC(C)N(C(=O)c1cc(F)ccc1Oc1cncnc1N1CCC2(CCN(Cc3ccc4c(c3)NC(=O)C4(C)C#N)C2)C1)C(C)C (centres unmarked) has what IC50?
< 100 nM

Entry CC(C)c1ncncc1-c1cc(F)ccc1Oc1cncnc1N1CC2(CC(NC3CCC(C)(C#N)CC3)C2)C1 (single isomer, unassigned) [Example 148A] has what IC50?
< 100 nM

Entry CCn1c(=O)[nH]c2cc(CN3CCC4(CCN(c5ncncc5Oc5ccc(F)cc5C(=O)N(C)C(C)C)C4)C3)ccc21 (centres unmarked) has what IC50?
< 100 nM

Entry CC(C)c1ncncc1-c1cc(F)ccc1Oc1cncnc1N1CC2(CC(NCc3ccc(C#N)cc3)C2)C1 has what IC50?
< 100 nM

Entry CC(C)c1ncncc1-c1cc(F)ccc1Oc1cncnc1N1CC2(CC(NCc3ccccc3)CO2)C1 (centres unmarked) has what IC50?
< 100 nM

Entry CC(C)N(C(=O)c1cc(F)ccc1Oc1cncnc1N1CC2(CCN(C[C@H]3CC[C@H](NS(C)(=O)=O)CC3)CC2)C1)C(C)C has what IC50?
< 100 nM

Entry CC(C)CCc1cc(F)ccc1Oc1cncnc1N1CCC2(CCN(Cc3ccc4[nH]c(=O)[nH]c4c3)C2)C1 (centres unmarked) has what IC50?
< 100 nM

Entry Cc1c(C#N)cccc1-c1cc(F)ccc1Oc1cncnc1N1CCC2(CCN(Cc3ccc4[nH]c(=O)[nH]c4c3)C2)C1 (centres unmarked) has what IC50?
< 100 nM

Entry CC(C)N(C(=O)c1cc(F)ccc1Oc1cncnc1N1CCC2(CCN(Cc3ccc4[nH]c(=O)[nH]c4c3)C2)C1)C(C)C (single isomer, unassigned) [Example 1A] has what IC50?
< 100 nM

Entry N#Cc1ccc(-c2cc(F)ccc2Oc2cncnc2N2CCC3(CCC(N)(Cc4ccccc4)C3)C2)c(C2CC2)c1 (single isomer, unassigned) [Example 250B] has what IC50?
< 100 nM

Entry CNC(=O)[C@H]1CC[C@H](CN2CCC3(CC2)CN(c2ncncc2Oc2ccc(F)cc2C(=O)N(C)C(C)C)C3)CC1 has what IC50?
100 to 1000 nM

Entry CC(C)n1nccc1-c1cc(F)ccc1Oc1cncnc1N1CCC2(CCN(Cc3ccc4[nH]c(=O)[nH]c4c3)C2)C1 (centres unmarked) [Example 237] has what IC50?
< 100 nM

Entry CC1(C)C(=O)Nc2cc(CN3CCC4(CCN(c5ncncc5Oc5ccc(F)cc5OC5CCCC5)C4)C3)ccc21 (centres unmarked) has what IC50?
< 100 nM

Entry CC(C)C(=O)N(CCO)c1cc(F)ccc1Oc1cncnc1N1CCC2(CCN(Cc3ccc4[nH]c(=O)[nH]c4c3)C2)C1 (centres unmarked) has what IC50?
< 100 nM

Entry CC(C)c1ccccc1-c1cc(F)c(F)cc1Oc1cncnc1N1CCC2(CCN(Cc3ccc4[nH]c(=O)[nH]c4c3)C2)C1 (centres unmarked) has what IC50?
< 100 nM

Entry Cn1c(-c2cc(F)ccc2Oc2cncnc2N2CCC3(CCN(Cc4ccc5c(c4)[nH]c(=O)n5CCO)C3)C2)c(C2CC2)ccc1=O (single isomer, unassigned) [Example 81A] has what IC50?
< 100 nM

Entry CN(C(=O)c1cc(F)ccc1Oc1cncnc1N1CCC2(CCN(Cc3ccc4[nH]c(=O)[nH]c4c3)C2)C1)C1CC1 (centres unmarked) has what IC50?
< 100 nM
